src = PubChem BioAssay (NCI)

Please respond with reported TGI for every item in the list.
System: LOX IMVI melanoma
Assay: NCI tumour cell line growth inhibition, 48 h
All answers are understood in µM, so give the number only.

Look up and report measured TGI for this entry: O=[N+]([O-])c1ccc(Br)c([N+](=O)[O-])c1
3.38

Input CC(=O)N1N=C2/C(=C/c3ccccc3)CC(C)CC2C1c1ccccc1 (stereo unspecified) , output reported TGI.
29.9

Give the reported TGI for this compound. CN(C)CCNC(=O)c1cc2ccccc2c2nc3ccccc3nc12
1.88

Specify reported TGI for the compound shown: C=C1C(=O)O[C@@H]2C[C@@]3(C)CCC[C@H](C)C3=C[C@H]12
22.9

Answer with reported TGI of COc1cc(C2c3cc4c(cc3OC(NC3CCCCC3)C2C)OCO4)cc(OC)c1OC (stereo unspecified)
17.6

---

Tested on: OVCAR-4 ovarian
Assay: NCI tumour cell line growth inhibition, 48 h
Task for the reader: assign each of the following compounds its reported TGI.

Let me know recorded TGI for COc1ccc(CCN2C(=O)C=CC2=O)cc1OC , thanks.
5.07 µM

For the compound COc1ccc(C(=O)OCC2OC(n3cnc4c(=S)nc[nH]c43)C(OC(=O)c3ccc(OC)cc3)C2OC(=O)c2ccc(OC)cc2)cc1 (stereo not given) , report TGI.
> 100 µM

Answer with the recorded TGI of CC1Cc2c(Br)nc(N)nc2NC1=O (stereo not given) only.
> 100 µM

State its TGI for this compound: COc1cc(/C=C2/C(=O)N(C(=O)OC(C)C)C(Cc3cc(OC)c(OC)c(C)c3OC)C(=O)N2Cc2ccccc2)c(OC)c(C)c1OC (stereo not given)
> 100 µM

Please look at this compound and report its TGI: CCC(=O)Nc1ccc(N=Cc2cccc(Oc3ccccc3)c2)cc1
> 100 µM

---

Tested on: SK-OV-3 ovarian
Experiment: NCI tumour cell line growth inhibition, 48 h
Where a SMILES comes first, the peptide text is derived from it. The star is where a group is joined. Boc = CC(C)(C)OC(=O)*
MEASUREMENT TYPE: TGI

Provide one value: measured TGI of Cc1cc(N2CCCCC2)nc(N(CCCNc2ccnc3cc(Cl)ccc23)Cc2ccco2)n1
13.2 µM

Retrieve TGI measured for Cc1nc2c(n1CCO)C(=O)c1ccccc1C2=O and print it.
> 100 µM

Provide one value: measured TGI of O=C1/C(=C\c2ccc(Cl)cc2Cl)Sc2scc(-c3cccc([N+](=O)[O-])c3)[n+]21
> 56.4 µM

Supply recorded TGI for COc1c(C)c(C/C=C(\C)CCCCO[Si](C(C)C)(C(C)C)C(C)C)c(OC)c2ccccc12 here.
> 100 µM

Retrieve TGI measured for CC(NC(=O)C(NC(=O)OC(C)(C)C)C(C)C)C(=O)N1CCCC1C(=O)NCC(=O)NC(C(=O)NCC(=O)O)C(C)C (stereo not given) (Boc-VAPGVG-OH; configuration not given here) and print it.
> 100 µM

Tell us which TGI value is on record for COc1cc(C2=NN(C)C(c3ccc([N+](=O)[O-])o3)C2)cc(OC)c1OC (stereo not given)
> 100 µM

Dear colleague, please send me the reported TGI for Cn1cc(-c2nc(-c3c[nH]c4ncccc34)cs2)c2cc(F)ccc21 when you can.
32.3 µM

Report TGI for S=C1SC(=Nc2ccccc2)C(=Nc2ccccc2)N1c1ccccc1
> 100 µM

// Input: O=C1/C(=C/C=C/c2ccccc2)N=C(c2ccccc2)N1C1Nc2cc3c(cc2S1)NC(N1C(=O)/C(=C/C=C/c2ccccc2)N=C1c1ccccc1)S3 (stereo not given) . Output its TGI only.
> 100 µM

Return value of TGI for input CCCN(CCC)C(=O)C1=Cc2ccc(-c3ccc(C(=O)N4CCCC4)cc3)cc2N=C(N)C1 , no commentary.
87 µM

Please indicate TGI recorded for COc1ccc2cc(C(C)C(O)c3cc(F)c(F)c(F)c3F)ccc2c1 (stereo not given)
> 100 µM

Specify TGI for c1ccc(Cn2cc3c(c2-c2ccccc2)CCc2cnoc2-3)cc1 and stop.
> 100 µM

Answer with reported TGI of CC(=O)OC(/C=C1/C=CC(=O)O1)COC(=O)c1ccccc1 (stereo not given)
> 31.2 µM

Item C/C=C(C)/C=C/CC(C)CCC=C(C)C (stereo not given) : provide TGI
> 100 µM

Entry Cc1nn(-c2nc3ccccc3s2)c(C)c1Oc1ccccc1O needs its TGI filled in; supply it.
24.8 µM

Report measured TGI; entry is COC(=O)C1=C2CCC(=O)[C@@]2(C)C(OC(C)=O)C=CC1 (stereo not given in full)
> 100 µM

Report TGI, nothing else, for this compound: COC(=O)/C=C1/CCC2[C@@H](C(=O)CC3[C@]2(C)CCC[C@@]3(C)C(=O)OC)C1C (stereo not given in full)
51.6 µM

Quickly give me recorded TGI for COc1ccc(-c2[nH]c3ccccc3c2C=C(C#N)C#N)cc1
5.89 µM

Annotate the compound COc1ccc(CCN2C(=O)C=CC2=O)cc1OC with its measured TGI.
33 µM

Give a short answer stating reported TGI for Cc1c(Cl)ccc2c1NC(=O)C2(O)C(C(=O)c1ccccc1)c1ccccc1 (stereo not given) .
> 100 µM

---

Give TGI for every item shown.
Tested on: SF-268 CNS
Experiment: NCI tumour cell line growth inhibition, 48 h
Numeric only. Scale: µM

Quickly give me recorded TGI for COc1cc2c(cc1OCCCOc1cc(-c3ccc(F)cc3)nc(C)n1)N=C[C@@H]1CCCN1C2=O
36.4

Give recorded TGI. CN(C)c1ccc(N2Cc3ccccc3OC3=C2C(=O)c2c(O)ccc(O)c2C3=O)cn1
1.59

For the molecule CCOC(=O)Cc1nnc2c(-c3ccccc3)nc3ccccc3n12 , report TGI.
39.7

For the molecule C=CC(Cl)(CBr)CCC(Br)=C(C)C (stereo not given) , report TGI.
43.3

---

System: SF-268 CNS
Assay: NCI tumour cell line growth inhibition, 48 h
Exercise: state measured TGI for each of the molecules provided.

Answer with the recorded TGI of O=c1cc(-c2ccccc2)[nH]c2cc(F)c(F)cc12 only.
> 20.8 µM

Name the recorded TGI of the molecule listed here: O=C1/C(=C/c2cccnc2)C(n2cccc2)c2c(Br)sc(Br)c21 (centres undefined)
4.3 µM

Kindly indicate its recorded TGI. Item: COc1ccc(C(=O)C(c2ccc(OC)cc2)C2(O)C(=O)Nc3ccccc32)cc1 (centres undefined)
> 100 µM

Identify the reported TGI for the following entry. OC12c3ccccc3C1(N1CCOCC1)CCCCC21OCCCO1 (centres undefined)
> 100 µM

Output measured TGI for this item: CC(C)=CCC[C@H](C)[C@@H]1CC[C@]2(C)C3CC[C@]4(OC4(C)C)C(CCCO)[C@]3(C)CC[C@@]12C (some centres undefined)
36 µM

Kindly indicate its recorded TGI. Item: O=C1C=CC2(O[C@H](c3ccccc3)[C@@H](c3ccccc3)O2)C(SC(=O)c2ccccc2)C1 (some centres undefined)
3.02 µM

Look up and state reported TGI for CCc1n[nH]c(=S)n1/N=C\c1ccc(-c2ccccc2Cl)o1
> 100 µM

Quote TGI reported for COc1cc(N=CN(C)C)c2ncccc2c1 please.
> 100 µM

Identify the reported TGI for the following entry. O=c1c2cccc(Cl)c2sc2c(NCCCNCCO)nc3ccccc3c12
16.7 µM

Read the entry CC1Cc2c(Br)nc(N)nc2NC1=O (centres undefined) and write its reported TGI.
> 100 µM

Specify measured TGI for O=[N+]([O-])C(Cl)C(Cl)C(Cl)=C(Cl)Cl (centres undefined) .
> 70.5 µM

Supply recorded TGI for C[n+]1c2ccccc2c(CNc2ccc(S(=O)(=O)N=C(N)N)cc2)c2ccccc21 here.
> 100 µM

Answer with the recorded TGI for the molecule listed here: COc1cc(NS(C)(=O)=O)ccc1Nc1c2ccc(Cl)cc2nc2c(OC)cccc12
11.5 µM

Supply recorded TGI for COc1cccc2c1CCc1ccccc1CC2=O here.
> 100 µM

Supply measured TGI of COc1cc(/C=C2/C(=O)N(C(=O)OC(C)C)C(Cc3cc(OC)c(OC)c(C)c3OC)C(=O)N2Cc2ccccc2)c(OC)c(C)c1OC (centres undefined) in your reply.
> 100 µM

Quick one: give measured TGI for N#C/C(=C\c1ccc(-c2ccc(Cl)cc2)o1)C(=O)Nc1ncc(Cc2ccc(Cl)cc2)s1
19.8 µM

Look up and state reported TGI for Cc1ccc(NC(=O)CCC(CC(=O)C(C)(C)C)=NNC(=O)C(=O)NN)cc1C
> 100 µM

Return reported TGI. Input molecule: CCN(CC)CCCC(C)Nc1cnc(C(=O)Nc2ccc(Cl)c3cccnc23)cn1 (centres undefined)
15 µM

Return reported TGI. Input molecule: COc1cc2nc(-c3cnc(N(C)C)nc3)nc(NC3CCN(Cc4ccccc4)CC3)c2cc1OC
3.72 µM

---

Tested on: M14 melanoma
Experiment: NCI tumour cell line growth inhibition, 48 h
MEASUREMENT TYPE: TGI

Recall the reported TGI of O=C(O)CNC(=O)CO/N=C1/C(c2c(O)[nH]c3ccccc23)=Nc2ccccc21 when tested on M14 melanoma.
> 100 µM

Provide M14 melanoma TGI reading for CC(=O)Oc1ccc2c(c1)Oc1cc(C(C)=O)ccc1C21OC(=O)c2ccccc21 (stereo not drawn) .
> 100 µM

Please tell me the measured TGI for COC(OC)C1OC(CO)C(n2cc(C)c(=O)[nH]c2=O)C1O (stereo not drawn) ; system: M14 melanoma.
> 100 µM

# return TGI for CC(=O)[CH-]C(=O)c1ccccc1.CC(=O)[CH-]C(=O)c1ccccc1.CC[O-].CC[O-].[Zr+4] , test system: M14 melanoma
> 100 µM

# lookup: M14 melanoma TGI, key = CC[C@H](C)[C@H]1NC(=O)[C@@H](N[C@](C)(O)[C@@H](N)CC(C)C)[C@@H](C)OC(=O)[C@H](Cc2ccc(OC)cc2)N(C)C(=O)[C@@H]2CCCN2C(=O)[C@H](CC(C)C)NC(=O)[C@@H](C)C(=O)[C@H](C(C)C)OC(=O)C[C@@H]1O
0.289 µM

# return TGI of Cc1ccc(/C(O)=C/c2nc3ccccc3oc2=O)cc1 (system: M14 melanoma)
> 100 µM

Enter recorded TGI with M14 melanoma for COC(=O)C1=C2CCC(=O)[C@@]2(C)C(OC(C)=O)C=CC1 (stereo partly drawn) here.
> 100 µM

Give measured TGI for N#Cc1c(-c2ccc(Cl)cc2)cc(-c2ccc(Nc3ccnc4cc(C(F)(F)F)ccc34)cc2)[nH]c1=O (M14 melanoma).
13.9 µM

Report value only: TGI, M14 melanoma, COc1cc(-c2nc(Nc3nc4ccccc4[nH]3)nc(N)c2C#N)cc(OC)c1OC
36.5 µM

Determine reported TGI for C=C(C)C1CC=C(C)[C@](O)(C2(O)C[C@H](C(=C)C)CC=C2C)C1 (stereo partly drawn) ; test system: M14 melanoma.
> 100 µM

System M14 melanoma. Read-out TGI. Item COC1=C2CC(C)CC(OC)[C@@H](OC(=O)CCN)[C@H](C)/C=C(\C)C(OC(N)=O)C(OC)/C=C\C=C(/C)C(=O)NC(=CC1=O)C2=O (stereo partly drawn) . Report value.
19.5 µM

Give TGI; test system M14 melanoma; compound COc1cc(N(CCC#N)CCC#N)ccc1/C=C1\SC(=S)NC1=O
> 100 µM

Look up M14 melanoma data: TGI of [O-]c1c2c(nn1-c1ccccc1)c1ccccc1c[n+]2Cc1ccccc1 , then report it.
> 100 µM

Provide TGI, system M14 melanoma, entry COC(=O)/C=C1/CCC2[C@@H](C(=O)CC3[C@]2(C)CCC[C@@]3(C)C(=O)OC)C1C (stereo partly drawn)
29.1 µM

Answer with TGI of CS(=O)(=O)NNS(=O)(=O)c1cccc([N+](=O)[O-])c1 measured for M14 melanoma.
> 100 µM

State the measured TGI (M14 melanoma) of CCOC(=O)/C(O)=C(/c1n[nH]c(=O)c2ccccc12)[N+](=O)[O-]
> 100 µM

Look up M14 melanoma data: TGI of CCC[CH2][Sn]1([CH2]CCC)[O]C(=O)c2cc(I)cc(I)c2[O]1 , then report it.
3.17 µM

Report TGI from M14 melanoma testing of COc1cc(C(=O)c2ccc3c(c2)OCO3)cc(OC)c1OC
> 100 µM

Please tell me the measured TGI for C[C@H]1O[C@@H](c2c(O)ccc3ccccc23)C[C@@H](N(C)C)C1O (stereo partly drawn) ; system: M14 melanoma.
> 100 µM

Give TGI; test system M14 melanoma; compound Cn1cc(C2=C(c3cccc4ccccc34)C(=O)NC2=O)c2ccccc21
> 25 µM

Output reported TGI of the compound CCOc1cccc(/C=N/NC(=O)c2ccc(Nc3ccnc(C(F)(F)F)c3)cc2)c1O on M14 melanoma.
> 24.6 µM

Lab note: record TGI of CCOC(=O)/C(=C\c1ccc(O)c(OC)c1)C(=O)c1ccccc1 tested on M14 melanoma.
> 48 µM

GET TGI | system: M14 melanoma | item: COCc1nc2c(OC)cc(-c3nc4nc(N5CCN(C)CC5)ccc4[nH]3)c(OC)c2[nH]1
42.4 µM

Under M14 melanoma: report TGI of Cn1ccnc1C(=O)/C=C/c1ccc(C(=O)Nc2ccc(Cl)cc2)cc1 .
4.96 µM

Report TGI under test system M14 melanoma for COc1ccc2c(=O)c(C)c(-c3ccccc3)oc2c1CN(C)C .
> 100 µM

Report value: TGI, system: M14 melanoma, compound: CC1=NN(c2ccccc2)C(=O)C1N=Nc1ccc([As](=O)(O)O)c(O)c1 (stereo not drawn)
> 100 µM

State TGI (M14 melanoma) of C/C=C(C)/C=C/CC(C)CCC=C(C)C (stereo not drawn) .
> 100 µM

Quote TGI with test system M14 melanoma for Cc1ccc(S(=O)(=O)N2CCN(S(=O)(=O)c3ccc(C)cc3)Cc3ccccc3C2)cc1
> 100 µM

// output TGI; input C/C(=C\C(C)COCc1ccccc1)[C@H](COCc1ccccc1)OCc1ccccc1 (stereo partly drawn) ; system M14 melanoma
> 100 µM

Report the value of TGI obtained on M14 melanoma for COc1cccc(-c2cc(=O)c3cc(OC)c(OC)cc3[nH]2)c1 .
> 100 µM

Provide TGI, system M14 melanoma, entry COC(=O)C1=C(O)c2cc(OC)c(OC)c(OC)c2[C@H](c2cc(OC)c(OC)c(OC)c2)C1C(=O)OC (stereo partly drawn)
> 100 µM

Report value: TGI, system: M14 melanoma, compound: CC(=O)OC(/C=C1/C=CC(=O)O1)COC(=O)c1ccccc1 (stereo not drawn)
> 31.2 µM

Please report the measured TGI for CC1(C)COC(C23C4C5C2C2C3C4C52I)=N1 (stereo not drawn) tested on M14 melanoma.
> 100 µM
